assay-target: EGFR del19/C797S (Homo sapiens, UniProt P00533, C797S/DEL746-750)
Sequence (P00533 with tags, fused parts or gaps DEL746-750/C797S): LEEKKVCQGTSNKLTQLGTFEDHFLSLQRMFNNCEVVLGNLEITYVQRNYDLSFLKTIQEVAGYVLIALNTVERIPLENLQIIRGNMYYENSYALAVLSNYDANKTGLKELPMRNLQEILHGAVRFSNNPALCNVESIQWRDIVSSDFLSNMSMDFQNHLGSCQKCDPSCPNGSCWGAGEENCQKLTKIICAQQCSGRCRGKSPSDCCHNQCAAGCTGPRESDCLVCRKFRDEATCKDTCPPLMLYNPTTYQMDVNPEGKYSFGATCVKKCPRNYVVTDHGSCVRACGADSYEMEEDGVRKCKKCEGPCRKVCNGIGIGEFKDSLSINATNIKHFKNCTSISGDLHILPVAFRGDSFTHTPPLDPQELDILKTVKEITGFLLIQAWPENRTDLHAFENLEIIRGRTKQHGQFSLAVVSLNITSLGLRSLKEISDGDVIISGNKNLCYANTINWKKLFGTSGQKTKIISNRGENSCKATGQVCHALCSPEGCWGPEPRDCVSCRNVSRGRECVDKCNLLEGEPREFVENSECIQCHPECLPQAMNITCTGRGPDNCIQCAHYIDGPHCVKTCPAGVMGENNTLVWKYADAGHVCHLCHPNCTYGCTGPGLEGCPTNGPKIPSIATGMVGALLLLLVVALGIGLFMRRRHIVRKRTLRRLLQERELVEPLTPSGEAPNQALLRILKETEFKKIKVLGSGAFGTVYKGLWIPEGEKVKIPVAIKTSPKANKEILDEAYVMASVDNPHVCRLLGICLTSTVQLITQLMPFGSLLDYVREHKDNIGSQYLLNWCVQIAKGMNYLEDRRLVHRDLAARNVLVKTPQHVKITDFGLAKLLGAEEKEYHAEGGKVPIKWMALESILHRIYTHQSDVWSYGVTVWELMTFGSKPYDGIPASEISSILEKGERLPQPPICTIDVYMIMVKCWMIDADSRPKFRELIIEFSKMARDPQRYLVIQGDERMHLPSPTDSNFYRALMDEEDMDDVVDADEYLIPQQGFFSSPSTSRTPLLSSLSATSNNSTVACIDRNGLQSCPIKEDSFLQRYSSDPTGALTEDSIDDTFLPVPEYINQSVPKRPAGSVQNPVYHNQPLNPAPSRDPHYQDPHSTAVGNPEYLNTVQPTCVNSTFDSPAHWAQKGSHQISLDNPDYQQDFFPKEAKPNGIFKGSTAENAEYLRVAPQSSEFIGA
measurement-protocol: Biochemical EGFR kinase assay (Lance Ultra TR-FRET), del19/C797S
settings: IC50 del19/C797S (nM) 100 μM ATP, 100 μM ATP
Description: Biochemical EGFR kinase assays were conducted using Lance Ultra time-resolved fluorescence resonance energy transfer (TR-FRET) technology from Perkin-Elmer. […] Each kinase reactions were incubated at room temperature for 1 hour and then stopped by the addition of 4 μL of stop solution (10 mM EDTA). […] After 60 minutes incubation at room temperature the LANCE signal was measured on an EnVision Multilabel Reader (Perkin-Elmer). […]
parameter: IC50 (nM)

Exercise: For the compound CN[C@H]1CC[C@H](CNc2cc(Nc3ccnc(-c4cnn(S(=O)(=O)C5CC5)c4)n3)ncc2C(=O)C2CC2)CC1 , what IC50 is on record?
Key: 2.6

Exercise: For the compound CN(C)C1CCN(CCNC2CCC(Nc3cc(Nc4ccnc(-c5cnn(S(=O)(=O)C6CC6)c5)n4)ncc3C(=O)C3CC3)CC2)CC1 (stereo not drawn) , what IC50 is on record?
Key: 18

P. O=C(c1cnc(Nc2ccnc(-c3cnn(S(=O)(=O)C4CC4)c3)n2)cc1NC1CCN(C2COC2)CC1)C1CC1
Q. O=C(c1cnc(Nc2ccnc(-c3cnn(S(=O)(=O)C4CC4)c3)n2)cc1N[C@H]1CC[C@@H](CO)CC1)C(F)F
R. C[C@]1(O)CC[C@@H](Nc2cc(Nc3ccnc(-c4cnn(S(=O)(=O)C5CC5)c4)n3)ncc2C(=O)CC2CCOCC2)CC1
S. O=C(N[C@H]1CC[C@H](O)CC1)c1cnc(Nc2ccnc(-c3cnn(S(=O)(=O)C4CC4)c3)n2)cc1N[C@H]1CC[C@@H](NCCF)CC1
Exercise: Hello, I need these entries ordered by IC50, highest reading first. Thanks! When ranking, write the labels in the order the request describes.
Key: P, S, R, Q

* * *

assay-target: EGFR del19/T790M/C797S (Homo sapiens, UniProt P00533, C797S/DEL746-750/T790M)
Sequence (P00533 with tags, fused parts or gaps DEL746-750/T790M/C797S): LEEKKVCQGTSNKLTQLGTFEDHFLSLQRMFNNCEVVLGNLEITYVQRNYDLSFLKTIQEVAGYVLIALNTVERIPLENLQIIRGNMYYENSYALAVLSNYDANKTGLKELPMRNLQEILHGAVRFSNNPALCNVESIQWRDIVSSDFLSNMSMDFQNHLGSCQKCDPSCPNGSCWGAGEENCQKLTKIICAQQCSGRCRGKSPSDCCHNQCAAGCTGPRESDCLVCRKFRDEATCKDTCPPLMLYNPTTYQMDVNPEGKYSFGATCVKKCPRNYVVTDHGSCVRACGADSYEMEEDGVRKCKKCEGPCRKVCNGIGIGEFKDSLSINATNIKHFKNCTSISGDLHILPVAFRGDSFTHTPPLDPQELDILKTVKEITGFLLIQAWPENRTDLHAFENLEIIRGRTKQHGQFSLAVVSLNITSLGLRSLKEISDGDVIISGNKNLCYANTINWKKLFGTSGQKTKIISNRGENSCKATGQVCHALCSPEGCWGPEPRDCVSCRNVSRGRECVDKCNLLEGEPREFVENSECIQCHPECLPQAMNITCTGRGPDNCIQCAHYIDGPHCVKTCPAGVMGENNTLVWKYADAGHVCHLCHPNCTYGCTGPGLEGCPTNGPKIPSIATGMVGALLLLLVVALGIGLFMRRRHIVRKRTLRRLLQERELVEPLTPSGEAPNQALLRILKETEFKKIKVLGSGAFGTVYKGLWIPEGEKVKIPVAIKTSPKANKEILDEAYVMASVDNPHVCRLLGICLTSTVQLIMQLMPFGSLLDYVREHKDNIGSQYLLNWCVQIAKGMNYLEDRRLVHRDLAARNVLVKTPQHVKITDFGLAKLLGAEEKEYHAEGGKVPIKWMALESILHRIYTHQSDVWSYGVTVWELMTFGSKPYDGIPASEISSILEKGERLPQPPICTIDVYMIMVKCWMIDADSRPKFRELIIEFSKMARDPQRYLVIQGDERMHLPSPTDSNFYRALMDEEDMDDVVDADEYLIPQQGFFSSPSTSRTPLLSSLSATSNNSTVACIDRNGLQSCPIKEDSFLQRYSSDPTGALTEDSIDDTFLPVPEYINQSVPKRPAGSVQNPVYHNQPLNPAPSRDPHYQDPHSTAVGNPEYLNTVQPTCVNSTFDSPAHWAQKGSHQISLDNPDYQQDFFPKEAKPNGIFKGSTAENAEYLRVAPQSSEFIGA
measurement-protocol: Biochemical EGFR kinase assay (Lance Ultra TR-FRET), del19/T790M/C797S
settings: IC50 del19/T790M/C797S (nM) 100 μM ATP, 100 μM ATP
parameter: IC50 (nM)

Below are worked cases with known answers.
Exercise: Give IC50 (EGFR del19/T790M/C797S (Homo sapiens, UniProt P00533, C797S/DEL746-750/T790M)) of the following compound: O=C(c1cnc(Nc2ccnc(-c3cnn(S(=O)(=O)C4CC4)c3)n2)cc1NC1CCCN(CCF)C1)C1CC1 (stereo not shown)
Key: 3.8

Exercise: Give IC50 (EGFR del19/T790M/C797S (Homo sapiens, UniProt P00533, C797S/DEL746-750/T790M)) of the following compound: O=C(c1cnc(Nc2ccnc(-c3cnn(S(=O)(=O)C4CC4)c3)n2)cc1NC1CCC(NCCN2CCCCC2)CC1)C1CC1 (stereo not shown)
Key: 1

Exercise: Give IC50 (EGFR del19/T790M/C797S (Homo sapiens, UniProt P00533, C797S/DEL746-750/T790M)) of the following compound: O=C(c1cnc(Nc2ccnc(-c3cnn(S(=O)(=O)C4CC4)c3)n2)cc1NC1CCC(NCCN2CC(F)C2)CC1)C1CC1 (stereo not shown)
Key: 1

I. CN[C@H]1CC[C@@H](Nc2cc(Nc3ccnc(-c4cnn(S(=O)(=O)C5CC5)c4)n3)ncc2C(=O)C2CC2)CC1
II. O=C(c1cnc(Nc2ccnc(-c3cnn(S(=O)(=O)C4CC4)c3)n2)cc1NC1CCOCC1)C1CC1
III. O=C(c1cnc(Nc2ccnc(-c3cnn(S(=O)(=O)C4CC4)c3)n2)cc1N[C@H]1CC[C@](O)(CO)CC1)C1CC1
IV. CC(C)(CO)CNc1cc(Nc2ccnc(-c3cnn(S(=O)(=O)C4CC4)c3)n2)ncc1C(=O)C1CC1
Exercise: Arrange items by their IC50 values in increasing order. When ranking, write the labels in the order the request describes.
Key: III, I, IV, II
(III: 0.2 nM, I: 1.2 nM, IV: 2.6 nM, II: 5.2 nM)

* * *

assay-target: EGFR wildtype (WT) (Homo sapiens, UniProt P00533)
Sequence (P00533 25-1210): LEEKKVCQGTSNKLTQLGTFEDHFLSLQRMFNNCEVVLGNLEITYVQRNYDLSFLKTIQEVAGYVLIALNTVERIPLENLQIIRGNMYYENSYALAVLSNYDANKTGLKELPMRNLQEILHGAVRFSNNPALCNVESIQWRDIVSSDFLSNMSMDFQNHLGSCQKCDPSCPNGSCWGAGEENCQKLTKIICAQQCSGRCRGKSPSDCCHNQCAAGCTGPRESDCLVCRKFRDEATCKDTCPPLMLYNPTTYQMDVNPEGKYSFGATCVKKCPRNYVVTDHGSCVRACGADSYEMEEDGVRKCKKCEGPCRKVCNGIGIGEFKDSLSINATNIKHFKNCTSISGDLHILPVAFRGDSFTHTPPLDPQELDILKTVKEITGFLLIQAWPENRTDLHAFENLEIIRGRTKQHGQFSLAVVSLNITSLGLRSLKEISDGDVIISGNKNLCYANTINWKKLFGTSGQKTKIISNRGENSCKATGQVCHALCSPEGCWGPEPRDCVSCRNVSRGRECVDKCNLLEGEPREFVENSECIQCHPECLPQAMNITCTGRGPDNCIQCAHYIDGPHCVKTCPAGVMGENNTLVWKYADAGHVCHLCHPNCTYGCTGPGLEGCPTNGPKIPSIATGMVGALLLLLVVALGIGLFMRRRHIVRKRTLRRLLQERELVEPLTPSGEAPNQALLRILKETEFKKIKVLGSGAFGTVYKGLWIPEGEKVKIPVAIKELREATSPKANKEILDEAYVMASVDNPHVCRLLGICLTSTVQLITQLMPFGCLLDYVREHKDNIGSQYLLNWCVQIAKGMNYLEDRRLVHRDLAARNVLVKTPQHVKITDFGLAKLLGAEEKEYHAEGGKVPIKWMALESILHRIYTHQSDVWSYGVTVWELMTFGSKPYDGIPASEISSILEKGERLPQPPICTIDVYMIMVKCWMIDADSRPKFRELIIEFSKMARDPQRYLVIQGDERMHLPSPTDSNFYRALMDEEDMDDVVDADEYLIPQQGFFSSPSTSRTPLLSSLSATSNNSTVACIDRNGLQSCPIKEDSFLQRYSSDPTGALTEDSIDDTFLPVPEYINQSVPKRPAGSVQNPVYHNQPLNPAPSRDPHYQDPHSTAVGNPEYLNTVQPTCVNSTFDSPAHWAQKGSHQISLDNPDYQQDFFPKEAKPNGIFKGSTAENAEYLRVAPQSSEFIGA
measurement-protocol: Biochemical EGFR kinase assay (Lance Ultra TR-FRET), wildtype
settings: IC50 WT (nM) 100 μM ATP, 100 μM ATP
parameter: IC50

Below are worked cases with known answers.
Exercise: Give IC50 (EGFR wildtype (WT) (Homo sapiens, UniProt P00533)) of the following compound: O=C(NCCF)c1cnc(Nc2ccnc(-c3cnn(S(=O)(=O)C4CC4)c3)n2)cc1N[C@H]1CC[C@@H](NCCF)CC1
Key: > 10000 nM

Exercise: Give IC50 (EGFR wildtype (WT) (Homo sapiens, UniProt P00533)) of the following compound: O=C(c1cnc(Nc2ccnc(-c3cnn(S(=O)(=O)C4CC4)c3)n2)cc1NC1CCOCC1)C1CC1
Key: > 10000 nM

Exercise: Give IC50 (EGFR wildtype (WT) (Homo sapiens, UniProt P00533)) of the following compound: O=C(c1cnc(Nc2ccnc(-c3cnn(S(=O)(=O)C4CC4)c3)n2)cc1NC1CCC(NCCN2CCCCC2)CC1)C1CC1 (stereo not shown)
Key: 6300 nM

Exercise: Give IC50 (EGFR wildtype (WT) (Homo sapiens, UniProt P00533)) of the following compound: CN[C@H]1CC[C@H](CNc2cc(Nc3ccnc(-c4cnn(S(=O)(=O)C5CC5)c4)n3)ncc2C(=O)C2CC2)CC1
Key: 3160 nM

Exercise: Give IC50 (EGFR wildtype (WT) (Homo sapiens, UniProt P00533)) of the following compound: O=C(c1cnc(Nc2ccnc(-c3cnn(S(=O)(=O)C4CC4)c3)n2)cc1N[C@H]1CC[C@H](O)C1)C1CC1
Key: > 10000 nM

***
Exercise: Give IC50 (EGFR wildtype (WT) (Homo sapiens, UniProt P00533)) of the following compound: O=C(c1cnc(Nc2ccnc(-c3cnn(S(=O)(=O)C4CC4)c3)n2)cc1N[C@H]1CC[C@](O)(CO)CC1)C1CC1
Key: > 10000 nM

Exercise: Give IC50 (EGFR wildtype (WT) (Homo sapiens, UniProt P00533)) of the following compound: CC(C)(CO)CNc1cc(Nc2ccnc(-c3cnn(S(=O)(=O)C4CC4)c3)n2)ncc1C(=O)C1CC1
Key: > 10000 nM

* * *

assay-target: EGFR L858R/T790M/C797S (Homo sapiens, UniProt P00533, C797S/L858R/T790M)
Sequence (P00533 25-1210 T790M/C797S/L858R): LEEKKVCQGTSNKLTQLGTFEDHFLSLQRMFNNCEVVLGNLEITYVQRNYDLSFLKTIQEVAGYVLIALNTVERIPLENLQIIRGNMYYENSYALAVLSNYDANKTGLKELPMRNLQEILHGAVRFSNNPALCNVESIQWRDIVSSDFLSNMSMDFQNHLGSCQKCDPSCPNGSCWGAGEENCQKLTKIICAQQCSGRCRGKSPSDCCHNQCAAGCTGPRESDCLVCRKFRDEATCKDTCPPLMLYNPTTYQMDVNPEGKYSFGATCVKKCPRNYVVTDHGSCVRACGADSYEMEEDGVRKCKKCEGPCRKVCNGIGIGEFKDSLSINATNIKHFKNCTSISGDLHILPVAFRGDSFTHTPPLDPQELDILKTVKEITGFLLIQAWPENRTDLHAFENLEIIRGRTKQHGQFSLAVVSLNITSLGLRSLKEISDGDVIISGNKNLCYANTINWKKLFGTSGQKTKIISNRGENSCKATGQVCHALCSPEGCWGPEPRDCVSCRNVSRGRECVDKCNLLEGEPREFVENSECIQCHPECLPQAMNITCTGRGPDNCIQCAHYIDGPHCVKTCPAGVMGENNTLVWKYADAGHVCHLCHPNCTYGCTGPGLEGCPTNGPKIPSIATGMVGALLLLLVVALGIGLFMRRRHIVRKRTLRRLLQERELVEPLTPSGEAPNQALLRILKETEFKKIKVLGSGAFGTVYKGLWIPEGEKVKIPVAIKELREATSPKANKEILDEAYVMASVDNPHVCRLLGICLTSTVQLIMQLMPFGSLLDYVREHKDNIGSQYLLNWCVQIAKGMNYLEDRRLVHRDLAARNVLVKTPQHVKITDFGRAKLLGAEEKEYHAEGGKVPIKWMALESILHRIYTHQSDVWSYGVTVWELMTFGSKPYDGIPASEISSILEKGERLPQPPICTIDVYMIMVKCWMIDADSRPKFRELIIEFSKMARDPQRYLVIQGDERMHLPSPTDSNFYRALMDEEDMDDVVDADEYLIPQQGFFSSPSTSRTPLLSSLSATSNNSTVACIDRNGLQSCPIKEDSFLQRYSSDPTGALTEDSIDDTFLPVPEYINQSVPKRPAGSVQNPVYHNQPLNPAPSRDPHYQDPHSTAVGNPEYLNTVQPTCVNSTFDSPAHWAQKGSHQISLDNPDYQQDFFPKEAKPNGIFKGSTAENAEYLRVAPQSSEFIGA
measurement-protocol: Biochemical EGFR kinase assay (Lance Ultra TR-FRET), L858R/T790M/C797S
settings: IC50 L858R/T790M/C797S (nM) 100 μM ATP, 100 μM ATP
parameter: IC50 (nM)

Exercise: For the molecule C[C@]1(O)CC[C@@H](Nc2cc(Nc3ccnc(-c4cnn(S(=O)(=O)C5CC5)c4)n3)ncc2C(=O)C(F)F)CC1 [Example 48] , what IC50 is on record?
Key: 2.4

Exercise: For the molecule O=C(c1cnc(Nc2ccnc(-c3cnn(S(=O)(=O)C4CC4)c3)n2)cc1NC1CCC(NCCO)CC1)C1CC1 (stereo not drawn) [Example 52] , what IC50 is on record?
Key: 1.8

Exercise: For the molecule O=C(c1cnc(Nc2ccnc(-c3cnn(S(=O)(=O)C4CC4)c3)n2)cc1NC1CCC(NCCN2CC(F)C2)CC1)C1CC1 (stereo not drawn) [Example 55] , what IC50 is on record?
Key: 1.9

Exercise: For the molecule CC(C)(CO)CNc1cc(Nc2ccnc(-c3cnn(S(=O)(=O)C4CC4)c3)n2)ncc1C(=O)C1CC1 [Example 28] , what IC50 is on record?
Key: 32.1

Exercise: For the molecule CN[C@H]1CC[C@H](CNc2cc(Nc3ccnc(-c4cnn(S(=O)(=O)C5CC5)c4)n3)ncc2C(=O)C2CC2)CC1 [Example 88] , what IC50 is on record?
Key: 0.2

Exercise: For the molecule O=C(c1cnc(Nc2ccnc(-c3cnn(S(=O)(=O)C4CC4)c3)n2)cc1N[C@H]1CC[C@@H](O)CC1)C1CC1 [Example 23] , what IC50 is on record?
Key: 0.5

Exercise: For the molecule CC(C)Nc1cc(Nc2ccnc(-c3cnn(S(=O)(=O)C4CC4)c3)n2)ncc1C(=O)NCCF [Example 74] , what IC50 is on record?
Key: 5.7

Exercise: For the molecule C[C@]1(O)CC[C@@H](Nc2cc(Nc3ccnc(-c4cnn(S(=O)(=O)C5CC5)c4)n3)ncc2C(=O)NCCF)CC1 [Example 76] , what IC50 is on record?
Key: 0.7

P. CN[C@H]1CC[C@@H](Nc2cc(Nc3ccnc(-c4cnn(S(=O)(=O)C5CC5)c4)n3)ncc2C(=O)C2CC2)CC1 [Example 32]
Q. O=C(c1cnc(Nc2ccnc(-c3cnn(S(=O)(=O)C4CC4)c3)n2)cc1NC1CCOCC1)C1CC1 [Example 35]
R. O=C(c1cnc(Nc2ccnc(-c3cnn(S(=O)(=O)C4CC4)c3)n2)cc1N[C@H]1CC[C@@H](NCCF)CC1)C(F)F [Example 51]
S. O=C(c1cnc(Nc2ccnc(-c3cnn(S(=O)(=O)C4CC4)c3)n2)cc1NC1CCC(NCCN2CCCCC2)CC1)C1CC1 (stereo not drawn) [Example 56]
T. O=C(c1cnc(Nc2ccnc(-c3cnn(S(=O)(=O)C4CC4)c3)n2)cc1N[C@H]1CC[C@](O)(CO)CC1)C1CC1 [Example 86]
Exercise: Arrange items by their IC50 values in increasing order. When ranking, write the labels in the order the request describes.
Key: T, S, P, R, Q

a. O=C(N[C@H]1CC[C@H](O)CC1)c1cnc(Nc2ccnc(-c3cnn(S(=O)(=O)C4CC4)c3)n2)cc1N[C@H]1CC[C@@H](NCCF)CC1 [Example 80]
b. O=C(c1cnc(Nc2ccnc(-c3cnn(S(=O)(=O)C4CC4)c3)n2)cc1NCCC1(O)CC1)C1CC1 [Example 29]
c. C[C@]1(O)CC[C@@H](Nc2cc(Nc3ccnc(-c4cnn(S(=O)(=O)C5CC5)c4)n3)ncc2C(=O)C2CC2)CC1 [Example 33]
Exercise: Hello, I need these entries ordered by IC50, highest reading first. Thanks! When ranking, write the labels in the order the request describes.
Key: b, a, c

I. O=C(c1cnc(Nc2ccnc(-c3cnn(S(=O)(=O)C4CC4)c3)n2)cc1NC1CCCN(CCF)C1)C1CC1 (stereo not drawn) [Example 39]
II. O=C(c1cnc(Nc2ccnc(-c3cnn(S(=O)(=O)C4CC4)c3)n2)cc1N[C@H]1CC[C@@H](CO)CC1)C(F)F [Example 49]
III. O=C(c1cnc(Nc2ccnc(-c3cnn(S(=O)(=O)C4CC4)c3)n2)cc1N[C@@H]1CC[C@@H](O)C1)C1CC1 [Example 26]
Exercise: Arrange items by their IC50 values in increasing order. When ranking, write the labels in the order the request describes.
Key: II, III, I
